Origin of measurements: paper PMC6364417

Test system: 501Mel-XP cells (Vemurafenib-resistant)
Assay: Kinase inhibitor library screening, PrestoBlue cell viability, 1 or 10 μM, 72 h
Settings: 501Mel XP; 10μΜ; 72 h; in %
property: cell viability, 501Mel XP, 10μΜ
Could you respond with only the numeric value?

Please review the following examples before continuing.
{"line_notation": "CN1CCN(c2cccc(Nc3nc4c(-c5ccc(S(C)(=O)=O)cc5)cccn4n3)c2)CC1", "assay_system": "501Mel-XP cells (Vemurafenib-resistant)", "cell viability, 501Mel XP, 10μΜ": 71.8}
{"line_notation": "C[C@@H]1CCN(C(=O)CC#N)C[C@@H]1N(C)c1ncnc2[nH]ccc12", "assay_system": "501Mel-XP cells (Vemurafenib-resistant)", "cell viability, 501Mel XP, 10μΜ": 92.6}
{"line_notation": "O=C(NOCC1CC1)c1ccc(F)c(F)c1Nc1ccc(I)cc1Cl", "assay_system": "501Mel-XP cells (Vemurafenib-resistant)", "cell viability, 501Mel XP, 10μΜ": 46.4}

Prompt: Hello, please tell me recorded cell viability, 501Mel XP, 10μΜ for this one: CN1CCN(c2ccc3nc(-c4c(N)c5c(F)cccc5[nH]c4=O)[nH]c3c2)CC1
Completion: -0.0348

* * *

Measured IC50, listed per entry.
Test system: A375-GP cells (Dabrafenib-resistant)
Experiment: Dose-response curves and IC50, PrestoBlue cell viability, 72 h
Format: cell-based, human
Details: n.e. = did not suppress growth below 50% in the tested concentration range, read-out: Half-maximal inhibitory concentration value (IC50), Mean
Number only, in nM; omit the unit.

Please review the following examples before continuing.
{"molecule": "O=C(Cc1ccc(-c2ccc(OCCN3CCOCC3)cc2)cn1)NCc1ccccc1 [KX2-391, reference compound]", "property": "IC50", "reported_measurement": 37}
{"molecule": "COc1ccc(-c2cc3c(C)nc(N)nc3n([C@H]3CC[C@H](OCCO)CC3)c2=O)cn1 [PF-04691502, reference compound]", "property": "IC50", "reported_measurement": 254}
{"molecule": "Cc1ccc([N+](=O)[O-])cc1S(=O)(=O)N(C)/N=C/c1cnc2ccc(Br)cn12 [PIK-75, reference compound]", "property": "IC50", "reported_measurement": 45}

Prompt: Hello, please tell me recorded IC50 for this one: CNC(=O)c1c(F)cccc1Nc1nc(Nc2cc3c(cc2OC)CCN3C(=O)CN(C)C)nc2[nH]ccc12 [GSK1838705A, reference compound]
Completion: 969

Prompt: Hello, please tell me recorded IC50 for this one: Nc1cc(C(F)(F)F)c(-c2cc(N3CCOCC3)nc(N3CCOCC3)n2)cn1
Completion: 788

Prompt: Hello, please tell me recorded IC50 for this one: Nc1ncnc2c1c(-c1cnc3[nH]ccc3c1)nn2C1CCCC1 [PP-121, reference compound]
Completion: 417

Prompt: Hello, please tell me recorded IC50 for this one: CN1CC[C@H](c2c(O)cc(O)c3c(=O)cc(-c4ccccc4Cl)oc23)[C@H](O)C1.Cl [Flavopiridol HCL]
Completion: 123

* * *

Test system: IGR37-GP cells (Dabrafenib-resistant)
Assay: Kinase inhibitor library screening, PrestoBlue cell viability, 1 or 10 μM, 72 h
Conditions: Homo sapiens, IGR-37, 72 h, read-out: cell viability, IGR37 GP, 1μΜ
property: viability at 1 µM (%)
Number only, in %; omit the unit.

Please review the following examples before continuing.
{"compound": "O=C1Nc2ccccc2/C1=C1/Nc2ccccc2C1=O", "assay_system": "IGR37-GP cells (Dabrafenib-resistant)", "viability at 1 µM, %": 94.7}
{"compound": "O=C(NOC[C@H](O)CO)c1ccc(F)c(F)c1Nc1ccc(I)cc1F", "assay_system": "IGR37-GP cells (Dabrafenib-resistant)", "viability at 1 µM, %": 76.5}
{"compound": "CNC(=O)CN1CCC(Oc2cc3c(Nc4cccc(Cl)c4F)ncnc3cc2OC)CC1", "assay_system": "IGR37-GP cells (Dabrafenib-resistant)", "viability at 1 µM, %": 90.4}
{"compound": "CCN1CCN(c2ccc(Nc3cc(N(C)C(=O)Nc4c(Cl)c(OC)cc(OC)c4Cl)ncn3)cc2)CC1", "assay_system": "IGR37-GP cells (Dabrafenib-resistant)", "viability at 1 µM, %": 87.7}
{"compound": "CN(C)C/C=C/C(=O)Nc1cc2c(Nc3ccc(F)c(Cl)c3)ncnc2cc1O[C@H]1CCOC1", "assay_system": "IGR37-GP cells (Dabrafenib-resistant)", "viability at 1 µM, %": 96.9}

Prompt: Hello, please tell me recorded viability at 1 µM for this one: C[C@H](NC(=O)/C(C#N)=C/c1cccc(Br)n1)c1ccccc1
Completion: 92.6

Prompt: Hello, please tell me recorded viability at 1 µM for this one: C=CC(=O)Nc1ccc2ncnc(Nc3ccc(OCc4cccc(F)c4)c(Cl)c3)c2c1
Completion: 87.4

Prompt: Hello, please tell me recorded viability at 1 µM for this one: CC(C)(O)CC(=O)NCCn1ccc2ncnc(Nc3ccc(Oc4cccc(C(F)(F)F)c4)c(Cl)c3)c21
Completion: 90.8

Prompt: Hello, please tell me recorded viability at 1 µM for this one: CC(C)(C)c1cc(NC(=O)Nc2ccc(-c3cn4c(n3)sc3cc(OCCN5CCOCC5)ccc34)cc2)no1
Completion: 67.8

Prompt: Hello, please tell me recorded viability at 1 µM for this one: CCS(=O)(=O)N1CC(CC#N)(n2cc(-c3ncnc4[nH]ccc34)cn2)C1
Completion: 92

Prompt: Hello, please tell me recorded viability at 1 µM for this one: C[C@]1(O)C[C@@H](c2nc(-c3ccc4ccc(-c5ccccc5)nc4c3)c3c(N)nccn32)C1
Completion: 81.6

Prompt: Hello, please tell me recorded viability at 1 µM for this one: Cc1cc(C(=O)NOCCO)c(Nc2ccc(I)cc2F)n(C)c1=O [AZD8330, reference compound]
Completion: 57.5

Prompt: Hello, please tell me recorded viability at 1 µM for this one: Cc1cc(Nc2cc(CN3CCOCC3)c3nc(C)c(Cc4ccc(Cl)cc4F)n3n2)n[nH]1
Completion: 90.3

Prompt: Hello, please tell me recorded viability at 1 µM for this one: Cn1c(=O)c(F)c(Nc2ccc(I)cc2F)c2c(=O)n(C[C@@H](O)CO)cnc21
Completion: 65.6

Prompt: Hello, please tell me recorded viability at 1 µM for this one: O=c1sn(-c2cccc3ccccc23)c(=O)n1Cc1ccccc1
Completion: 94.6

Prompt: Hello, please tell me recorded viability at 1 µM for this one: Cn1cnc2c(F)c(Nc3ccc(Br)cc3Cl)c(C(=O)NOCCO)cc21 [AZD6244 (Selumetinib)]
Completion: 92
